Target: UniProt O42713
Assay: Inhibition of mushroom tyrosinase using L-DOPA as substrate preincubated for 5 mins followed by substrate addition measured for 2 mins by spectrophotometric analysis

compound	units-text	IC50
O=C(O)c1ccccc1 [BENZOIC ACID]	µM	710

====

Molecular target: Tyrosinase (Agaricus bisporus)
Sequence (O42713 whole entry): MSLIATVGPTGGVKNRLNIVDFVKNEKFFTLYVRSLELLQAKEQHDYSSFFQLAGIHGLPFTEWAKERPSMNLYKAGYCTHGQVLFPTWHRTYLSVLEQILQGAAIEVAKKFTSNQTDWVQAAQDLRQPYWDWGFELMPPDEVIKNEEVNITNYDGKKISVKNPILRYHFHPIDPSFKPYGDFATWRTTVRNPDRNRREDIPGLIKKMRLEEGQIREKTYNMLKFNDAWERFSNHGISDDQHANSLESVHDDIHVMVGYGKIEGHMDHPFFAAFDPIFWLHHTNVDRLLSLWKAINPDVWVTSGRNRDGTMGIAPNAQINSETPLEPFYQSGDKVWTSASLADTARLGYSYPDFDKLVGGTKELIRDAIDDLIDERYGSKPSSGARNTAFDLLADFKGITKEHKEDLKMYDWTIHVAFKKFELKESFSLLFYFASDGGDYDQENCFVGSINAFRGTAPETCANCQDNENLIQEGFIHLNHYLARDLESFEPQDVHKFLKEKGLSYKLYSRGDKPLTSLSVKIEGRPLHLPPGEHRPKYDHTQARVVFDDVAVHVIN
Assay: Inhibition of mushroom tyrosinase diphenolase activity using L-DOPA as substrate measured every 30 s for 25 times

test-smiles	comparison-symbol	IC50 (µM)
O=C(O)c1ccccc1	=	822
O=C(O)c1ccccc1-c1ccccc1	>	1000
O=C(O)c1ccc(-c2ccccc2)cc1	=	216
O=C(O)c1cccc(-c2ccccc2)c1	=	36.3

====

Target: Tyrosinase (Agaricus bisporus)
Experiment: Inhibition of mushroom tyrosinase using L-tyrosine as substrate assessed as dopachrome formation preincubated for 10 mins followed by protein addition measured after 20 mins by microplate reader analysis
pIC50: −log10 of the molar value.

molecule	assayed-target	pIC50
Nc1ccc(C(=O)O)cc1 [AMINOBENZOIC ACID]	Tyrosinase (Agaricus bisporus)	5.42
COc1ccc(C(=O)O)cc1 [p-ANISIC ACID]	Tyrosinase (Agaricus bisporus)	3.38

====

Listed here are compounds together with their documented IC50.
Target: UniProtKB O42713
Experiment: Inhibition of mushroom tyrosinase monophenolase activity using L-tyrosine as substrate measured every 60 s for 25 times
endpoint-name: IC50 (µM)

compound	units-text	comparison-symbol	data-value
O=C(O)c1cccc(-c2ccccc2)c1	µM	=	6.97
O=C(O)c1ccccc1-c1ccccc1	µM	>	1000
O=C(O)c1ccccc1 [BENZOIC ACID]	µM	=	224
O=C(O)c1ccc(-c2ccccc2)cc1	µM	=	63.2
